Target: FAK (Homo sapiens)
Sequence (Q05397 whole entry, species assumed): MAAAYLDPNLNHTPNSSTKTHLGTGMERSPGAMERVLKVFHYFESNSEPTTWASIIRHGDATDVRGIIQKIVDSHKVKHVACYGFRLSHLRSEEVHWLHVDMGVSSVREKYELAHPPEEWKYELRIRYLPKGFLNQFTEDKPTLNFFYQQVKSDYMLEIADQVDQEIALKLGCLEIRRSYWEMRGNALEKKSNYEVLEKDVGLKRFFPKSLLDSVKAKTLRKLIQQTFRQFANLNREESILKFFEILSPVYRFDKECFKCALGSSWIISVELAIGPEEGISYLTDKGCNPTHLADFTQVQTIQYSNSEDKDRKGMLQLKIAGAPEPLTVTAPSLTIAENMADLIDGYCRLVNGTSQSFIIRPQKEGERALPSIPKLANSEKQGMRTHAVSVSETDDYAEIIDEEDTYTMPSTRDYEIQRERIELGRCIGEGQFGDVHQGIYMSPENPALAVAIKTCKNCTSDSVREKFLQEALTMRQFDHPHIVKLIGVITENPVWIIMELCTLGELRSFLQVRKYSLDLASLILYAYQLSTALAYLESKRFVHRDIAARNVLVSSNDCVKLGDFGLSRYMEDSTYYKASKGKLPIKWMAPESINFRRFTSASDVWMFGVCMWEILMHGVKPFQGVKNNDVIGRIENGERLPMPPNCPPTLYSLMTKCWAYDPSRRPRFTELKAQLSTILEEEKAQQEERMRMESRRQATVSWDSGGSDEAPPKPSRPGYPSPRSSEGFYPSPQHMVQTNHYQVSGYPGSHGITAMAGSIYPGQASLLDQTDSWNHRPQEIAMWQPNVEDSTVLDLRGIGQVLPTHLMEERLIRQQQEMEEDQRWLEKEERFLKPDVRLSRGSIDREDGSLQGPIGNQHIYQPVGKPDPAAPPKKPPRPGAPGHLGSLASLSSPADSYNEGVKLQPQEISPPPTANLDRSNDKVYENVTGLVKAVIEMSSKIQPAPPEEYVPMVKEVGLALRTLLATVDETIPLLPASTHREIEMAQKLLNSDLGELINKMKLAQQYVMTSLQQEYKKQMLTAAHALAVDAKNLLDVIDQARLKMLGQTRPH
MEASURE: IC50

[in] Please give the measured IC50 for this compound: "CCN1C(=O)N(c2c(F)c(OC)cc(OC)c2F)Cc2cnc3[nH]c(CN4CCOCC4)cc3c21"
[out] > 10 µM

---

Target: SYK (Homo sapiens, UniProt P43405)
MEASURE: IC50

[in] Which IC50 is reported for this compound? "CCN1C(=O)N(c2c(F)c(OC)cc(OC)c2F)Cc2cnc3[nH]c(CN4CCOCC4)cc3c21"
[out] > 10 µM

---

Biological target: CAMK2D (Homo sapiens)
Sequence (Q13557 whole entry, species assumed): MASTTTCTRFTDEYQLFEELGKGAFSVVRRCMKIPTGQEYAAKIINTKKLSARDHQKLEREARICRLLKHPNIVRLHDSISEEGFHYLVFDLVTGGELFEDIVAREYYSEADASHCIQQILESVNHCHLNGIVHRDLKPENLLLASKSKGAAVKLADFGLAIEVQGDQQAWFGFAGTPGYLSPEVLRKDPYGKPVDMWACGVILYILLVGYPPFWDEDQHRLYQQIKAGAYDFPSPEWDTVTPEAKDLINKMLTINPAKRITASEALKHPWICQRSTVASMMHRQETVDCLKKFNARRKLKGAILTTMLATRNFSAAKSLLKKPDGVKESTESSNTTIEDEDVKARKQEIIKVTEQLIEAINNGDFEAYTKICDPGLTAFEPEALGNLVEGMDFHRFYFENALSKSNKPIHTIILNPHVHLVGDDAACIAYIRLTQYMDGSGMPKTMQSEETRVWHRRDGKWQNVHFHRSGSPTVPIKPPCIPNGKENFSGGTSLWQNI
pIC50: −log10 of the molar value.
MEASURE: pIC50

[in] Give the reported pIC50 for "CCN1C(=O)N(c2c(F)c(OC)cc(OC)c2F)Cc2cnc3[nH]c(CN4CCOCC4)cc3c21" (system: CAMK2D (Homo sapiens)).
[out] < 5.00

---

Target: CYP2B6 (Homo sapiens, UniProt P20813)
Construct: from tissue; host or cells: human liver microsomes
Sequence (P20813 whole entry): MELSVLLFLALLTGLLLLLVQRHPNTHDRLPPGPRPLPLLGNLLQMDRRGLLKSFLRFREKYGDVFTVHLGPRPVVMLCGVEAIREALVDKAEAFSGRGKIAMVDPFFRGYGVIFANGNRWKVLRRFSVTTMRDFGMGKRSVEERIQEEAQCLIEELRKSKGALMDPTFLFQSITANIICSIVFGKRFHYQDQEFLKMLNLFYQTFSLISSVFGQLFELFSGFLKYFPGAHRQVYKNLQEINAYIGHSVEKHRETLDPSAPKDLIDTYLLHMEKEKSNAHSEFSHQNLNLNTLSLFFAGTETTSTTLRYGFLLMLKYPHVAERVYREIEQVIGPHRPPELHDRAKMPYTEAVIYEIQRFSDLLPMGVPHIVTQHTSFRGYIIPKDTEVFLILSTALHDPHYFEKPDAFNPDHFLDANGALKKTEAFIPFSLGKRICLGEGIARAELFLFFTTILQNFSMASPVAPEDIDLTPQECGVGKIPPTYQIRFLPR
Assay: CYP inhibition
Assay type: in vitro ADME
Conditions: human liver microsomes
pIC50: −log10 of the molar value.
MEASURE: pIC50

[in] Give CYP2B6 (Homo sapiens, UniProt P20813) pIC50 for CCN1C(=O)N(c2c(F)c(OC)cc(OC)c2F)Cc2cnc3[nH]c(CN4CCOCC4)cc3c21 [INCB054828, pemigatinib]
[out] < 4.60

---

Target chain: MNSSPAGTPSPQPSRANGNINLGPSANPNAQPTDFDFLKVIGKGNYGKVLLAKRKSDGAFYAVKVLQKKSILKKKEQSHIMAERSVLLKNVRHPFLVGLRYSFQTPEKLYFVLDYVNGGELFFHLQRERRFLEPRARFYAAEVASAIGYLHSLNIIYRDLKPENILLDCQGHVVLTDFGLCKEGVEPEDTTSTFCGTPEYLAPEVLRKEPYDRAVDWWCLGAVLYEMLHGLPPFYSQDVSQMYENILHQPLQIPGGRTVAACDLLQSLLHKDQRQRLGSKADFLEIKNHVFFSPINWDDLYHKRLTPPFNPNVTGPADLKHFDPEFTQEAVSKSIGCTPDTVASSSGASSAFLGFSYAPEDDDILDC
MEASURE: IC50

[in] Suppose we examine the compound CCN1C(=O)N(c2c(F)c(OC)cc(OC)c2F)Cc2cnc3[nH]c(CN4CCOCC4)cc3c21 [INCB054828, pemigatinib] ; what IC50 value has been reported?
[out] > 10 µM

---

Target: CYP2D6 (Homo sapiens, UniProt P10635)
Sequence (P10635 whole entry): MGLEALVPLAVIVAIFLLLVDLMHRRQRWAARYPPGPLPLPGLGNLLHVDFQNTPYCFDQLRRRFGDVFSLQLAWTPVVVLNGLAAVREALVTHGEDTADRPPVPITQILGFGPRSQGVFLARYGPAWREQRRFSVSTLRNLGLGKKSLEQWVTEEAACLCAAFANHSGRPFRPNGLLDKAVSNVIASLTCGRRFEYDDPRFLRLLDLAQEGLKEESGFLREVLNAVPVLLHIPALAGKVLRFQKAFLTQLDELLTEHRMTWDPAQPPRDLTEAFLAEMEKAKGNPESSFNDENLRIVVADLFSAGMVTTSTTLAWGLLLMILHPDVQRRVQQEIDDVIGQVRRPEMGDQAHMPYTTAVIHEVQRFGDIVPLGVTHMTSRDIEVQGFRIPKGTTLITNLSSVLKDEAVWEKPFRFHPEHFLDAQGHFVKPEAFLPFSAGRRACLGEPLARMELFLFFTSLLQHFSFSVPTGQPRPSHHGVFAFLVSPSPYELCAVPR
MEASURE: IC50

[in] Please give the measured IC50 for this compound: "CCN1C(=O)N(c2c(F)c(OC)cc(OC)c2F)Cc2cnc3[nH]c(CN4CCOCC4)cc3c21"
[out] > 25 µM

---

Biological target: SGK3 (Homo sapiens, UniProt Q96BR1)
Sequence (Q96BR1 whole entry, species assumed): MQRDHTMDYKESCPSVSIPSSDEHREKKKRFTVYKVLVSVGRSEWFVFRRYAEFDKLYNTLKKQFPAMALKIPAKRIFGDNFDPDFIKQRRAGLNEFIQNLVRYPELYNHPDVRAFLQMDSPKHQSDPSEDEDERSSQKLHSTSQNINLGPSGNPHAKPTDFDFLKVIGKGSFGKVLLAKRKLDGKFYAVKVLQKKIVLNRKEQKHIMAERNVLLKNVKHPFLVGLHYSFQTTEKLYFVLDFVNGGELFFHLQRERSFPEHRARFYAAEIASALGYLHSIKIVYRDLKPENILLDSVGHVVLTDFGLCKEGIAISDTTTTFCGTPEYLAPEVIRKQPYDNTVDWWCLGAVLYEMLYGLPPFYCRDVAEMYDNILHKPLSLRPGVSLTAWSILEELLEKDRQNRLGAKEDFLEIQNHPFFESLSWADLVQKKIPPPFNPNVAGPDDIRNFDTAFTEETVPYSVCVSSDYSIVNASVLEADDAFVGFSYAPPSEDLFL
Experiment: Enzyme selectivity panel
Type: biochemical
Settings: 1 mM ATP
pIC50: −log10 of the molar value.
MEASURE: pIC50

[in] Provide value of pIC50 for this record tested with SGK3 (Homo sapiens, UniProt Q96BR1): "CCN1C(=O)N(c2c(F)c(OC)cc(OC)c2F)Cc2cnc3[nH]c(CN4CCOCC4)cc3c21"
[out] < 5.00

---

Biological target: SRC (Homo sapiens)
Sequence (P12931 whole entry, species assumed): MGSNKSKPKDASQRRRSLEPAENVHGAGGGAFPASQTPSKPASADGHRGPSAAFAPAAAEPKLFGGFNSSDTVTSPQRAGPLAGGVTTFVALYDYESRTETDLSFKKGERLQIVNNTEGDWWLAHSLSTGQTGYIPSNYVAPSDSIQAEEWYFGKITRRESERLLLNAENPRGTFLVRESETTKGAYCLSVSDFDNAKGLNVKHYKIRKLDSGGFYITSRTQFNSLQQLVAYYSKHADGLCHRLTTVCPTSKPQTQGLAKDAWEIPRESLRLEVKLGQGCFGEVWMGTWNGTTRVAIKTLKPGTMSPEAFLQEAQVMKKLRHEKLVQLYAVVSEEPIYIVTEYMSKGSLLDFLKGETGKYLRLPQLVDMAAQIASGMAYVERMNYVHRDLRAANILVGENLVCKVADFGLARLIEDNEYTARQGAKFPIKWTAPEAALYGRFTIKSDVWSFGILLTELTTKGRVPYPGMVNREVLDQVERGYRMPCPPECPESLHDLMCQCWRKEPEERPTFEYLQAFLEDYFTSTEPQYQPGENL
MEASURE: IC50

[in] Can you share its IC50? I mean this molecule: CCN1C(=O)N(c2c(F)c(OC)cc(OC)c2F)Cc2cnc3[nH]c(CN4CCOCC4)cc3c21 [INCB054828, pemigatinib]
[out] > 10 µM
